- Species: Homo sapiens
- TEST_SUMMARY: Selectivity ratio of EC50 for human vasopressin V1b receptor to EC50 for human vasopressin V1a receptor
Bridge positions count the residues as written; N and C are the ends. Square brackets hold non-standard residues; d marks the D form. Peptide text beside a SMILES is read from it. * marks the point of attachment. Orn(iPr) = CC(C)NCCC[C@H](N)C(=O)O; Cha = N[C@@H](CC1CCCCC1)C(=O)O; NH(3-hydroxypropyl) = OCCCN*; Orn = NCCC[C@H](N)C(=O)O
Parameter Ratio EC50: see the listing below.
Write no unit; give the number alone.

>>> recorded_value("CC[C@H](C)[C@@H]1NC(=O)[C@H](CC2CCCCC2)NC(=O)[C@@H](N)CSSC[C@@H](C(=O)N2CCC[C@H]2C(=O)N[C@@H](CCCNC(C)C)C(=O)NCC(N)=O)NC(=O)[C@H](CC(N)=O)NC(=O)[C@H](CC(N)=O)NC1=O (H-C[Cha]INNCP[Orn(iPr)]G-NH2; disulfide 1-6)")
78

Turning to the following compound.
**Q:** For the compound shown here, CC[C@H](C)[C@@H]1NC(=O)[C@H](Cc2ccccc2)NC(=O)[C@@H](N)CSSC[C@@H](C(=O)N2CCC[C@H]2C(=O)N[C@@H](CCCN)C(=O)NCC(N)=O)NC(=O)[C@H](CC(N)=O)NC(=O)[C@H](CC(=O)NCCCO)NC1=O (H-CFID(NH(3-hydroxypropyl))NCP[Orn]G-NH2; disulfide 1-6) , give the reported Ratio EC50.
**A:** 9

----------
Ratio EC50: recorded values
- Species on record: Homo sapiens
- TEST_SUMMARY: Selectivity ratio of EC50 for human vasopressin V1b receptor to EC50 for human vasopressin V1a receptor
Numbered stars: 1 amine (or outer) side, 2 acyl side, 3 side chain; on linkers, the order of the positions; unused ones are H or OH. Bridge positions count the residues as written; N and C are the ends. Square brackets hold non-standard residues; d marks the D form. Peptide text beside a SMILES is read from it. * marks the point of attachment. X5 = CC(C)CCNCCC[C@H](N[*:1])C(=O)[*:2]; Orn(iPr) = CC(C)NCCC[C@H](N)C(=O)O; 2Thi = N[C@@H](Cc1cccs1)C(=O)O; Orn = NCCC[C@H](N)C(=O)O; Dab = NCC[C@H](N)C(=O)O; N(Me)OMe = CON(C)*

Before answering, review these 5 worked examples.
>>> recorded_value("CC[C@H](C)[C@@H]1NC(=O)[C@H](Cc2cccs2)NC(=O)[C@@H](N)CSSC[C@@H](C(=O)N2CCC[C@H]2C(=O)N[C@@H](CCN)C(=O)NCC(N)=O)NC(=O)[C@H](CC(N)=O)NC(=O)[C@H](CCC(N)=O)NC1=O (H-C[2Thi]IQNCP[Dab]G-NH2; disulfide 1-6)")
270
>>> recorded_value("CC[C@H](C)[C@@H]1NC(=O)[C@H](Cc2ccccc2)NC(=O)[C@@H](N)CSSC[C@@H](C(=O)N2CCC[C@H]2C(=O)N[C@@H](CCCN)C(=O)NCC(N)=O)NC(=O)[C@H](CC(N)=O)NC(=O)[C@H](CC(=O)N(C)C)NC1=O (H-CFID(NMe2)NCP[Orn]G-NH2; disulfide 1-6)")
36
>>> recorded_value("CC[C@H](C)[C@@H]1NC(=O)[C@H](Cc2ccccc2)NC(=O)[C@@H](N)CSSC[C@@H](C(=O)N2CCC[C@H]2C(=O)N[C@@H](CCCNC(C)C)C(=O)NCC(N)=O)NC(=O)[C@H](CC(N)=O)NC(=O)[C@H](CCC(N)=O)NC1=O (H-CFIQNCP[Orn(iPr)]G-NH2; disulfide 1-6)")
110
>>> recorded_value("CC[C@H](C)[C@@H]1NC(=O)[C@H](Cc2ccccc2)NC(=O)[C@@H](N)CSSC[C@@H](C(=O)N2CCC[C@H]2C(=O)N[C@@H](CCCN)C(=O)NCC(N)=O)NC(=O)[C@H](CC(N)=O)NC(=O)[C@H](CCC(=O)N(C)OC)NC1=O (H-CFIE(N(Me)OMe)NCP[Orn]G-NH2; disulfide 1-6)")
7.8
>>> recorded_value("CC[C@H](C)[C@@H]1NC(=O)[C@H](Cc2cnc[nH]2)NC(=O)[C@@H](N)CSSC[C@@H](C(=O)N2CCC[C@H]2C(=O)N[C@@H](CCN)C(=O)NCC(N)=O)NC(=O)[C@H](CC(N)=O)NC(=O)[C@H](CCC(N)=O)NC1=O (H-CHIQNCP[Dab]G-NH2; disulfide 1-6)")
"> 19"

**Q:** Field request: Ratio EC50 | item: CC[C@H](C)[C@@H]1NC(=O)[C@H](Cc2ccccc2)NC(=O)[C@@H](N)CSSC[C@@H](C(=O)N2CCC[C@H]2C(=O)N[C@@H](CCCNCCC(C)C)C(=O)NCC(N)=O)NC(=O)[C@H](CC(N)=O)NC(=O)[C@H](CCC(N)=O)NC1=O (H-CFIQNCP[X5]G-NH2; disulfide 1-6)
**A:** 120

**Q:** Given the entry CCNC(=O)C[C@@H]1NC(=O)[C@H]([C@@H](C)CC)NC(=O)[C@H](Cc2ccccc2)NC(=O)[C@@H](N)CSSC[C@@H](C(=O)N2CCC[C@H]2C(=O)N[C@@H](CCCN)C(=O)NCC(N)=O)NC(=O)[C@H](CC(N)=O)NC1=O (H-CFID(NHEt)NCP[Orn]G-NH2; disulfide 1-6) , report its measured Ratio EC50.
**A:** 5.2

**Q:** Name the recorded Ratio EC50 for CCNC(=O)CC[C@@H]1NC(=O)[C@H]([C@@H](C)CC)NC(=O)[C@H](Cc2ccccc2)NC(=O)[C@@H](N)CSSC[C@@H](C(=O)N2CCC[C@H]2C(=O)N[C@@H](CCCN)C(=O)NCC(N)=O)NC(=O)[C@H](CC(N)=O)NC1=O (H-CFIE(NHEt)NCP[Orn]G-NH2; disulfide 1-6) .
**A:** 2.4
